Listed binders paired with reported ratio of amounts bound vs CE115HA000
MEASUREMENT TARGET: T1, CD3ε homodimer protein (human, UniProt P07766 23-126, limits assumed, sulfo-tag or biotin label in some ECL assays)
T1 construct: also called human CD3ε homodimer protein; CD3 (CD3ε)
T1 sequence (P07766 23-126 limits assumed): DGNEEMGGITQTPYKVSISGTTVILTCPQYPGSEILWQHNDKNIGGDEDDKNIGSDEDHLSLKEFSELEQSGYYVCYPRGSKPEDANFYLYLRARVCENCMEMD
ASSAY REMARKS: SPR, CD3ε homodimer on chip;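 also: biacore SPR with antibody variants flowed as analyte over amine-coupled CD3ε homodimer on a CM chip, bound amount of each single-residue H chain variant over that of parent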

BINDER: CE115HA000 Q50K (antibody, name in Kabat numbering, V domains shown) VH: QVQLVESGGGVVQPGRSLRLSCAASGFTFSNAWMHWVRQAPGKGLEWVAKIKAKSNNYATYYAESVKGRFTISRDDSKNSLYLQMNSLKTEDTAVYYCRYVHYGAYYGVDAWGQGTTVTVSS VL: DIVMTQSPLSLPVTPGEPASISCRSSQSLVHSNRNTYLHWYQQKPGQAPRLLIYKVSNRFSGVPDRFSGSGSGTDFTLKISRVEAEDVGVYYCGQGTQVPYTFGQGTKLEIK
ratio of amounts bound vs CE115HA000: 0.33
--
BINDER: CE115HA000 W33Y (antibody, name in Kabat numbering, V domains shown) VH: QVQLVESGGGVVQPGRSLRLSCAASGFTFSNAYMHWVRQAPGKGLEWVAQIKAKSNNYATYYAESVKGRFTISRDDSKNSLYLQMNSLKTEDTAVYYCRYVHYGAYYGVDAWGQGTTVTVSS VL: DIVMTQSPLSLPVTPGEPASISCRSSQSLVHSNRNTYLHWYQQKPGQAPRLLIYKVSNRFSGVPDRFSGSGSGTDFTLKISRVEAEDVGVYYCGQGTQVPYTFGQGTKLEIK
ratio of amounts bound vs CE115HA000: 0.66
--
BINDER: CE115HA000 Y58A (antibody, name in Kabat numbering, V domains shown) VH: QVQLVESGGGVVQPGRSLRLSCAASGFTFSNAWMHWVRQAPGKGLEWVAQIKAKSNNYATAYAESVKGRFTISRDDSKNSLYLQMNSLKTEDTAVYYCRYVHYGAYYGVDAWGQGTTVTVSS VL: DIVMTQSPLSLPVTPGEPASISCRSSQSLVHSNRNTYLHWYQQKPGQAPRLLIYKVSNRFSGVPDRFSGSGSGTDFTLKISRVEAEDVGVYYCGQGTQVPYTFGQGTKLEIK
ratio of amounts bound vs CE115HA000: 0.22
--
BINDER: CE115HA000 D101G (antibody, name in Kabat numbering, V domains shown) VH: QVQLVESGGGVVQPGRSLRLSCAASGFTFSNAWMHWVRQAPGKGLEWVAQIKAKSNNYATYYAESVKGRFTISRDDSKNSLYLQMNSLKTEDTAVYYCRYVHYGAYYGVGAWGQGTTVTVSS VL: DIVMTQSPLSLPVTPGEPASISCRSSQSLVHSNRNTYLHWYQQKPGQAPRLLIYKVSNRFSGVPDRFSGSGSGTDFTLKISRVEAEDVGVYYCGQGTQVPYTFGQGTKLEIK
ratio of amounts bound vs CE115HA000: 1.38
--
BINDER: CE115HA000 K52Y (antibody, name in Kabat numbering, V domains shown) VH: QVQLVESGGGVVQPGRSLRLSCAASGFTFSNAWMHWVRQAPGKGLEWVAQIYAKSNNYATYYAESVKGRFTISRDDSKNSLYLQMNSLKTEDTAVYYCRYVHYGAYYGVDAWGQGTTVTVSS VL: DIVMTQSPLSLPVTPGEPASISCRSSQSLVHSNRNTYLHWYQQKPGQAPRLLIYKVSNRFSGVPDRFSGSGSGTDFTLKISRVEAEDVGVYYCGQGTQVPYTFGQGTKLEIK
ratio of amounts bound vs CE115HA000: 0.18
